Test system: HCC-2998 colon
Assay: NCI tumour cell line growth inhibition, 48 h
Give TGI for every item shown.
Numbers only, in µM.

>  <compound>
CN(C)CCOc1ccc(-c2cc(-c3ccc4c(c3)CC/C4=N\O)c(-c3ccncc3)o2)cc1

>  <TGI, µM>
9.5

$$$$

Exercise: // TGI lookup, key: CCN(CC)CCNC(=O)c1nn(-c2ccc(Cl)cc2)c2c1CCc1cc(OC)ccc1-2
Key: 5.52

---

Tested on: SK-MEL-2 melanoma
Experiment: NCI tumour cell line growth inhibition, 48 h
parameter: TGI (µM)
Give bare numbers, in µM.

Check out these entries, answers already filled in.
>  <molecule>
Nc1c2c(nc3ccccc13)CCCc1ccccc1-2

>  <unitLabel>
µM

>  <TGI>
27.1

$$$$
>  <molecule>
Nc1ncnc2nn(C3OC(CO)C(O)C3O)nc12 (stereo not given)

>  <unitLabel>
µM

>  <TGI>
17.5

$$$$
>  <molecule>
COc1ccc(Oc2cc(NCCC(F)(F)F)c3ncc(-c4ccc(C(=O)NC5CC5)c(C)c4)n3n2)c(F)c1F

>  <unitLabel>
µM

>  <TGI>
26.6

$$$$
>  <molecule>
COC(=O)[C@@H](OC)[C@@H]1Cc2cc3cc(OC4CC(OC5CC(O)C(O)C(C)O5)C(O)C(C)O4)c(C)c(O)c3c(O)c2C(=O)[C@H]1OC1CC(OC2CC(OC3CC(C)(O)C(O)C(C)O3)C(O)C(C)O2)C(O)C(C)O1 (stereo not given in full)

>  <unitLabel>
µM

>  <TGI>
0.0777

$$$$

Please look at the following molecule next.
Exercise: So what's the measured TGI for this one? CC12CC(Sc3ccccc3N1)c1ccccc1O2 (stereo not given)
Key: 25.4

The reported numbers originate from PubChem BioAssay (NCI).
